Target: T1, 4H451-AA
T1 chain: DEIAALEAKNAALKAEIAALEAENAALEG
Assay: two-hybrid library CCmax;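 also: natural log of median RNA to DNA barcode read ratio; higher means stronger binding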
Details: mean of both orientations
// reported interaction score per item
Keep the answer to the number alone.

Would you kindly share the measured interaction score for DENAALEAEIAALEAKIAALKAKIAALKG [4H1070-AA] ?
-1.11

Would you kindly share the measured interaction score for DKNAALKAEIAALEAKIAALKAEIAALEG [4H3625-AA] ?
-1.64

Would you kindly share the measured interaction score for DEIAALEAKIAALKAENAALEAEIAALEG [4H337-AA] ?
-0.516

Would you kindly share the measured interaction score for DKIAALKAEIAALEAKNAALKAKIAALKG [4H2622-AA] ?
-0.0617

Next:
Would you kindly share the measured interaction score for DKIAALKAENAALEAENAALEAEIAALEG [4H2705-AA] ?
-1.84

Would you kindly share the measured interaction score for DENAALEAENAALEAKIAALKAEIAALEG [4H1193-AA] ?
-1.06

Would you kindly share the measured interaction score for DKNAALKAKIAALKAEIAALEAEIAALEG [4H3905-AA] ?
-1.34

The measured values listed here are drawn from paper PMC10397247.
